Biological target: AMPA receptor (human GluR1 flip/stargazin expressed in CHO-K1 cells) (Homo sapiens, UniProt P42261)
Construct: expressed in transfected cells; host or cells: CHO-K1
Sequence (P42261 19-906 isoform P42261-2 limits assumed): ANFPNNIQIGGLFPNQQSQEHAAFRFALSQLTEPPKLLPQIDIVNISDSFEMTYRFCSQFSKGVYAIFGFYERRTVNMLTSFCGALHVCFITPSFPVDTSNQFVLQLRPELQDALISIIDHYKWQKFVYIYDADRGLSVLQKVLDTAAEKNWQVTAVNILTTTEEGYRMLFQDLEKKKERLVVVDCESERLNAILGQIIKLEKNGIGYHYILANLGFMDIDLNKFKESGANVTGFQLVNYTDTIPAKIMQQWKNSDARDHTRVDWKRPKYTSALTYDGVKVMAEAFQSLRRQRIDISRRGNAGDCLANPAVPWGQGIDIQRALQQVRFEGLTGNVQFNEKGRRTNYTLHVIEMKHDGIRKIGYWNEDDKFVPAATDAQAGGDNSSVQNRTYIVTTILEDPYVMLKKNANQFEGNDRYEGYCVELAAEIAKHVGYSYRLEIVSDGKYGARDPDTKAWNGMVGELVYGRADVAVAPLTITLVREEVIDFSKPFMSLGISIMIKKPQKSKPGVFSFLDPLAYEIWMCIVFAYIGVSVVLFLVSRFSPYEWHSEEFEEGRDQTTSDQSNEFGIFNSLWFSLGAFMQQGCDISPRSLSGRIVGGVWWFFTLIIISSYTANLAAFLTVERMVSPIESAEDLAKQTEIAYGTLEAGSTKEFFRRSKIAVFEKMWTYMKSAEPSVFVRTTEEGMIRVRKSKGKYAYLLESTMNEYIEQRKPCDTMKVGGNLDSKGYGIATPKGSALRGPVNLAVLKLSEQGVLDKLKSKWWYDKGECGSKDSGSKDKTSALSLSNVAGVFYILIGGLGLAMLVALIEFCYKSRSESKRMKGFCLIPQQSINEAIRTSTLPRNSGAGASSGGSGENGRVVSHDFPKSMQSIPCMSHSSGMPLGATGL
Sequence (Q9Y698 whole entry partner): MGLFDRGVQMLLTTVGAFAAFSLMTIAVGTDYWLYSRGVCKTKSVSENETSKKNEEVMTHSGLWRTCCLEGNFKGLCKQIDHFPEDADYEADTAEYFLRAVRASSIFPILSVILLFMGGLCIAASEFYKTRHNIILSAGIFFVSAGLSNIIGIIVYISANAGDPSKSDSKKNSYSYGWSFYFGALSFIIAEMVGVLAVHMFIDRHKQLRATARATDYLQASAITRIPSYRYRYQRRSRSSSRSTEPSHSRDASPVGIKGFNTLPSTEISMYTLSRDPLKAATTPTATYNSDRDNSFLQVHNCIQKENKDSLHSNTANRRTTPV
Experiment: AMPA receptor function enhancing activity using calcium influx as index
Type: cell-based
Conditions: change in fluorescence level in 3 min, 100% = 3 mM glutamic acid + 300 μM cyclothiazide, 0% = 3 mM glutamic acid only
Kindly return 1 if reported activity (%) is no lower than 90%; return -1 if it is lower.

Here are 5 compounds together with their reported answers.
- compound: "Cc1cnc(-c2ccc(OC[C@H]3COCC[C@@H]3NS(C)(=O)=O)cc2)s1 (racemic)"
  qualitativeLabel: 1
- compound: "CCS(=O)(=O)N[C@H]1CCCC[C@@H]1COc1ccc(-n2cccn2)cc1 (relative stereo)"
  qualitativeLabel: -1
- compound: "CS(=O)(=O)N[C@H]1CCOC[C@@H]1COc1ccc(-c2ccc(Cl)cn2)c(F)c1 (racemic)"
  qualitativeLabel: 1
- compound: "O=S(=O)(N[C@H]1COCC[C@@H]1COc1ccc(-c2ncc(Cl)cc2F)cc1)C1CC1"
  qualitativeLabel: -1
- compound: "CCS(=O)(=O)N[C@H]1CCN(C(C)=O)C[C@@H]1COc1ccc(C(C)C)cc1 (single isomer, unassigned)"
  qualitativeLabel: -1

[in] For this compound, is measured activity (%) 90% or higher? CCS(=O)(=O)N[C@H]1CCOC[C@@H]1COc1ccc(-c2cc(C)on2)c(F)c1
[out] -1

[in] For this compound, is measured activity (%) 90% or higher? CS(=O)(=O)N[C@H]1CCOC[C@@H]1COc1ccc(-n2cc(Cl)cn2)cc1 [Example 269]
[out] 1

Where do these numbers come from? They come from patent US9527807B2.
